Just for reference, patent US6825348B2 is where these values come from.

test: Solubility in water (phosphate buffer, UV absorbance); settings: phosphate buffer, pH 6.8, aqueous buffer, thermodynamic from solid
MEASURED_PROPERTY: log10 of solubility at 20 h (log10 of the value in µg/mL)
Please interpret these as log10 of solubility at 20 h where solubility at 20 h is in µg/mL.

The cases that follow already have their log10 of solubility at 20 h on record.
INSERT INTO assay_data (compound, assay_value) VALUES
  ('Nc1nc2ncn(COCCO)c2c(=O)[nH]1 [Compound 9, 7-[(2-Hydroxyethoxy)methyl]guanine]', 2.51),
  ('COC1=C(OC)/C(=C/COP(=O)(O)COCCn2cnc3c(N)ncnc32)OC1=O', 3.87);

Now for the compound whose log10 of solubility at 20 h we want.
Data request: Give reported log10 of solubility at 20 h value for COC1=C(OC)/C(=C/COP(=O)(O)OC[C@H]2O[C@@H](n3cnc4c(N)ncnc43)[C@H](O)[C@@H]2OP(=O)(O)COCCn2cnc3ncnc(N)c32)OC1=O
Data returned: 3.71

====

Heads up, these compounds all have Ki values measured for PRPP synthetase (UniProt P0A717).
Give just the numeric value; mM need not be written.

INSERT INTO results (compound, measured_property, units_text, assay_value) VALUES
  ('Nc1ncnc2c1ncn2CCOCP(=O)(O)O [PMEA 4, 9-[2-(phosphonomethoxy)ethyl]adenine, reference compound]', 'Ki', 'mM', 3.02);

Now for the compound whose Ki we want.
Data request: Fetch value of Ki on PRPP synthetase (UniProt P0A717) for Nc1ncnc2ncn(CCOCP(=O)(O)O)c12 [Compound 20, 7-[2-(Phosphonomethoxy)ethyl]adenine] .
Data returned: 16.7

====

test system: HSV-1 (KOS); experiment: Anti-HSV-1 activity in vivo, HSV-1-induced mortality in NMRI mice; settings: 250 mg/kg/day i.p., 6 days, terminated day 21
Some compounds, each annotated with its measured mean day of animal death.

INSERT INTO measurements (compound, assay_value) VALUES
  ('Nc1ncnc2c1ncn2CCOCP(=O)(O)O [PMEA 4, 9-[2-(phosphonomethoxy)ethyl]adenine, reference compound]', '>21 days');

Data request: Give reported mean day of animal death value for COC1=C(OC)/C(=C/COP(=O)(O)OC[C@H]2O[C@@H](n3cnc4c(N)ncnc43)[C@H](O)[C@@H]2OP(=O)(O)COCCn2cnc3ncnc(N)c32)OC1=O
Data returned: >21 days

Data request: Give reported mean day of animal death value for Nc1nc2ncn(COCCO)c2c(=O)[nH]1 [Compound 9, 7-[(2-Hydroxyethoxy)methyl]guanine]
Data returned: 18.5 ± 1.0 days

Data request: Give reported mean day of animal death value for Nc1ncnc2ncn(CCOCP(=O)(O)O)c12 [Compound 20, 7-[2-(Phosphonomethoxy)ethyl]adenine]
Data returned: 20.0 ± 1.7 days

Data request: Give reported mean day of animal death value for Nc1ncnc2c1ncn2[C@@H]1O[C@H](COP(=O)(O)O)[C@@H](OP(=O)(O)COCCn2cnc3ncnc(N)c32)[C@H]1O
Data returned: >21 days

Data request: Give reported mean day of animal death value for COC1=C(OC)/C(=C/COP(=O)(O)COCCn2cnc3c(N)ncnc32)OC1=O
Data returned: >21 days

Data request: Give reported mean day of animal death value for Nc1nc2c(ncn2COCCO)c(=O)[nH]1 [acyclovir 2, 9-[(2-hydroxyethoxy)methyl]guanine, reference compound]
Data returned: >21 days

Data request: Give reported mean day of animal death value for Nc1ncnc2ncn(COCCO)c12 [Compound 14, 7-[(2-Hydroxyethoxy)methyl]adenine]
Data returned: >21 days
